- Assay name: IV/PO pharmacokinetic study in dogs
- Type: in vivo, male beagle dogs
- Design: concentration or dose not given beside the values
- Condition details: male, beagle, plasma; dog, IV; read-out: AUClast Mean
Below, each entry is listed alongside its reported AUC(0-t).
Give the value in ng·h/mL but do not write ng·h/mL after it.

Cc1cnc(C(=O)N[C@H](Cc2ccc(-c3cc(Cl)ccc3F)cc2)C[C@@H](O)C(=O)O)o1: 510

IN: Name the reported AUC(0-t) value associated with the compound COc1cc(C(=O)N[C@H](Cc2ccc(-c3cc(Cl)ccc3F)cc2)C[C@@H](O)C(=O)O)on1
OUT: 160

IN: Same read-out for CCc1ncc(C(=O)N[C@H](Cc2ccc(-c3cc(Cl)ccc3F)cc2)C[C@@H](C)C(=O)O)o1 ?
OUT: 170

IN: Same read-out for C[C@H](C[C@@H](Cc1ccc(-c2cc(Cl)ccc2F)cc1)NC(=O)c1cnco1)C(=O)O ?
OUT: 70
